target: pooled human IgG
OBSERVABLE: Enzyme Activity Endpoint Assay (purified): IgG (ng/µL)
// units = ng/µL; emit number, no label

PROTEIN: PRT-257 (protein) MVTSVWTKGVTPPTNFTYGEDVLHAPYVANQGWYDITKLFNGKDDLLCGAATAGNMLHWWFDQNKEQIENYLKKHPEKQKINFNGEQMFDVKEAIDTKDSQLDSKLFDYFKEKAFPYLSTKHLGVFPDHVIDMFINGYRLSLTNHGPTPVKRGSKDPRGGIFDAVFTRGDQSKLLTNRHDFKEKTLKEISDLIKQELTEGKALGISHTYANVRINHVINLWGADFDAEGNLEAIYVTDSDSNPSIGMKKYFVGVNSSGKVAISAKEIEEDNIGAQVLGLFTLSTGQDIWNQTN
ENDPOINT VALUE: 0

Data request, read-out Enzyme Activity Endpoint Assay (purified): IgG, for PRT-82 (protein) MANQEIRYSEVTPSTITSVWTKGVTPPAQFIQNEDVFHAPYVANQGWYDITKTFNGKDDLLCGAATAGNMLHWWFDQNKEEIEAYLKKHPEKQKIMFGDQELLDVRKVINTKDDQTNSALFNYFKDKAFPNLSARRLGVMPDLVLDMFINGYYLNVGKTQTTDVNRTYQNKDRRGGIFDAVFTRGDQSKLLTARHDFKEKNLNEISDLIKQELTEGKALALSHTYANVSINHVINLWGADFDANGNLEAIYVTDSDSNASIGMKKYFVGVNSAGKVAISAKEIEEDNIGAQVLGLFTLSTGQDIWNKTN
15
